The reported measurements were obtained from ChEMBL document CHEMBL1152353.

# assay_name: Cytotoxicity against human SK-N-SH cells after 72 hrs by MTS assay
# Assay type: cell-based
measurement_name: CC50 at 72 h (µM)
Your answer should be a plain number; it is taken to be in µM.

For orientation, consider the following solved cases.
item_smiles: CC1=C(O)C(=O)C=C2C1=CC=C1[C@@]2(C)CC[C@@]2(C)[C@@H]3C[C@](C)(C(=O)O)CC[C@]3(C)CC[C@]12C
unit_info: µM
CC50 at 72 h: 1.6

item_smiles: CCCCn1nc(-c2ccccc2)nc2c(=O)n(C)c(=O)nc1-2
unit_info: µM
CC50 at 72 h: 9.8

item_smiles: CCn1nc(-c2ccc(C)s2)nc2c(=O)n(C)c(=O)nc1-2
unit_info: µM
CC50 at 72 h: 63.5

item_smiles: CCCCn1nc(-c2nccs2)nc2c(=O)n(C)c(=O)nc1-2
unit_info: µM
CC50 at 72 h: 1.4

item_smiles: Cn1c(=O)nc2n(Cc3ccccc3)nc(-c3nc4ccccc4s3)nc-2c1=O
unit_info: µM
CC50 at 72 h: 5.6

### Prompt Need CC50 at 72 h of CCCCn1nc(-c2nc3ccccc3[nH]2)nc2c(=O)n(C)c(=O)nc1-2 , thanks.
### Response 13.1

### Prompt Need CC50 at 72 h of CCCn1nc(-c2nc3ccccc3s2)nc2c(=O)n(C)c(=O)nc1-2 , thanks.
### Response 5.4
